# EXPERIMENTAL_PROTOCOL: inhibitors of cytokine-induced beta cell apoptosis, primary screen, luminescence (AID 435005);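 also: 0% = cytokine-treated negative control wells and 100% = positive control rescue; higher means more ATP so stronger rescue from cytokine killing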
# TEST_CONDITIONS: INS-1E cytokine-induced death, ATP luminescence, 48 h; percent of positive-control rescue, neutral wells zero; concentration not given here
In all, about 300,000 compounds went through this assay and about 2,400 (0.8%) were called active.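 The calls were made as follows: active = Every replicate reaches about 75%, or at least half do and their mean reaches it too (limit read from the data); inconclusive = At least half of replicates reach the limit but their mean does not; inactive = Under half of replicates reach the limit.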 This is one part of a sample in which actives are shown more often than they occur.
A correct response names exactly one class from True (active), False (inactive)

CC(C)(C)c1cc(C(=O)N/N=C/c2ccc([N+](=O)[O-])s2)n[nH]1; True
C=CCC1(CC=C)CCCN1C(=O)c1cc(COc2ccc(-n3cncn3)cc2)on1; True

*Q* What classification did O=C(CNC(=O)c1ccccc1F)OCC(=O)c1c[nH]c2ccccc12 end up with in this test?
*A* False

*Q* What classification did Cc1ccc(CNC(=O)COC(=O)C2CCC2)cc1 end up with in this test?
*A* False

###

# EXPERIMENTAL_PROTOCOL: inhibitors of cytokine-induced beta cell apoptosis, primary screen, luminescence (AID 435005);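 also: 0% = cytokine-treated negative control wells and 100% = positive control rescue; higher means more ATP so stronger rescue from cytokine killing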
# TEST_CONDITIONS: INS-1E cytokine-induced death, ATP luminescence, 48 h; active compounds read high; percent of positive-control rescue, neutral wells zero; concentration not given here
In all, about 300,000 compounds went through this assay and about 2,400 (0.8%) were called active. The full list was thinned out, with actives kept by preference.
METRIC: protection from apoptosis (%)
Write the answer as a number in %, unit excluded.

Solved entries (count: 6):
CS(=O)(=O)c1ccc2nc(NC(=O)c3ccc(N4CCCC4=O)cc3)sc2c1; 2.56
Cc1ccc(-c2nn(-c3ccccc3)cc2/C=C/C(=O)Nc2cccc(S(N)(=O)=O)c2)cc1; 120
C#CCOCCOCCOCCNc1nc(N2CCN(C(=O)[C@H](CCCN=C(N)N)n3cc(C(N)[C@@H](C)CC)nn3)CC2)nc(N2CCN(C(=O)[C@H](CO)n3cc([C@@H](N)C(C)C)nn3)CC2)n1 (some centres undefined); -10.4
O=C(/C=C/c1cccc([N+](=O)[O-])c1)N1CCN(Cc2ccccc2)CC1; -1.33
O=c1c([N+](=O)[O-])cc(C(F)(F)F)cn1Cc1cccc(Cl)c1; -7.45
Oc1c(CN2CCN(c3ccc(F)cc3)CC2)cc(Cl)c2cccnc12; 111

*Q* Supply reported protection from apoptosis belonging to this compound: CC(C)(C)OC(=O)C[C@@H]1C/C=C\C[C@@H](CC(=O)N[C@H](CO)Cc2ccccc2)C(=O)NC[C@@H](c2ccccc2)OC1=O
*A* 6.98

*Q* Supply reported protection from apoptosis belonging to this compound: COC(=O)c1ccc(NC(=O)c2ccccc2NS(=O)(=O)c2ccccc2)cc1
*A* 32.1

*Q* Supply reported protection from apoptosis belonging to this compound: Cc1cc(=O)[nH]c(SCC(=O)N2c3ccccc3CC2C)n1 (centres undefined)
*A* -8.13

*Q* Supply reported protection from apoptosis belonging to this compound: Oc1ccc(CN2CCN(c3ncccn3)CC2)cc1
*A* -1.21

*Q* Supply reported protection from apoptosis belonging to this compound: CCS(=O)(=O)c1ccc2oc(SCC(=O)N3c4ccccc4CC3C)nc2c1 (centres undefined)
*A* -3.73

*Q* Supply reported protection from apoptosis belonging to this compound: O=C(Nc1nc2ccc([N+](=O)[O-])cc2s1)c1ccc(S(=O)(=O)N2CCCc3ccccc32)cc1
*A* 113

*Q* Supply reported protection from apoptosis belonging to this compound: CCOc1ccc2nc(NC(=O)c3cc([N+](=O)[O-])ccc3N3CCOCC3)sc2c1
*A* 32.1

*Q* Supply reported protection from apoptosis belonging to this compound: O=[N+]([O-])/C=C/c1ccc2c(ccn2Cc2ccccc2)c1
*A* 102

*Q* Supply reported protection from apoptosis belonging to this compound: CC1Cc2ccccc2N1C(=O)CSc1nc2ccccc2o1 (centres undefined)
*A* 104

*Q* Supply reported protection from apoptosis belonging to this compound: COc1cc(OC)c(N2CC(C(=O)Nc3cc(Cl)ccc3N3CCOCC3)CC2=O)cc1Cl (centres undefined)
*A* 26.3

*Q* Supply reported protection from apoptosis belonging to this compound: O=C(NC(Nc1nc2ccc([N+](=O)[O-])cc2s1)(C(F)(F)F)C(F)(F)F)c1ccccc1
*A* 118

*Q* Supply reported protection from apoptosis belonging to this compound: COc1cccc(NC(=O)COC(=O)c2ccc3ccccc3n2)c1
*A* -5.49

*Q* Supply reported protection from apoptosis belonging to this compound: CN(C)CCCN(C(=O)c1ccc(S(=O)(=O)N2CCCc3ccccc32)cc1)c1nc2ccc(F)cc2s1
*A* -11.6
